We begin with a simple list: items and their reported %Inh.
System: CLK4
Conditions: concentration: 1 μM, replicates: in singlicate; n = 1;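 further: KINOMEscan kinase panel screen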
Please respond with the number in % and leave the unit unwritten.

• N#Cc1cnc2cc(-c3cnc(CNCCN4CCOCC4)s3)ccc2c1Nc1ccc(Oc2ccccc2)cc1 [GW664114] = 95.2
• O=C(Nc1n[nH]c2cc(-c3cccs3)ccc12)C1CC1 [SB-731284] = 0
• Cn1cc(-c2cnc(N)c3c(-c4ccc5c(c4)CCN5C(=O)Cc4ccccc4)csc23)cn1 [GSK2593074] = 0

Field: next molecule
Return value of %Inh for input O=C(O)C(F)(F)F.O=c1[nH]ccc2nc(N[C@@H]3CCNC3)nc(Nc3ccc4c(c3)S(=O)(=O)CC4)c12 [GSK2181306] , no commentary.
80

====

System: BMPR1B
Conditions: concentration: 1 μM, replicates: in singlicate; n = 1
QUANTITY: %Inh (%)
# number only, unit % dropped from output

Worked set:
* Cl.O=C(Nc1ccc(Oc2ccc3[nH]c(NC(=O)c4ccco4)nc3c2)cc1)Nc1cc(C(F)(F)F)ccc1F | 0
* Fc1cc(Cl)ccc1Nc1ccnc2cc(-c3ccc(CN4CCSCC4)o3)ccc12 | 45
* Cc1ccc(-c2ccc3occ(-c4ccc(S(C)=O)cc4)c3c2)nn1 (centres unmarked) | 0
* N#CC1(c2cccc(C(=O)Nc3cccc(Oc4ccc5nc(NC(=O)C6CC6)sc5n4)c3)c2)CC1 | 0

Attention now shifts to the item below.
With BMPR1B as the test system, provide measured %Inh for this compound: CN(C)CCNS(=O)(=O)c1ccc(-c2ccnc3[nH]ccc23)cc1
0

====

# %Inh annotations
Tested on: DCAMKL1
Construct: gene DCLK1
Conditions: concentration: 1 μM, replicates: in singlicate; n = 1
Please give a number only; it is taken to be in %.

Some entries whose results are on file:
* COc1cccc(CC(=O)N2CCc3cc(-c4cn(C)c5ncnc(N)c45)ccc32)c1 | 26
* Cc1ccc(O)cc1Nc1ccnc2cc(-c3ccc(CN4CCCCC4)o3)ccc12 | 25
* CCNc1nccc(-c2c(-c3ccc(F)cc3)ncn2C2CCN(C)CC2)n1 | 13
* Cl.Cl.NCC(NC(=O)c1cc(-c2cccnc2)c(-c2ccnc3[nH]ccc23)s1)c1ccccc1 (centres unmarked) | 21
* Nc1cccc(-c2ccc3c(N)n[nH]c3c2)c1 | 13
* O=C(O)C(F)(F)F.O=c1[nH]ccc2nc(N[C@@H]3CCNC3)nc(Nc3ccc4c(c3)S(=O)(=O)CC4)c12 | 95.7
* Cc1ccc(C)c(NC(=O)Nc2ccc(C)c(-c3ccc(C(=O)Nc4ccncc4)cc3)c2)c1 | 13

Consider the compound COc1cc(Nc2nccc(N3CCC(NC(=O)Nc4ccc5c(c4)OCO5)C3)n2)cc(OC)c1OC (centres unmarked) . State its measured %Inh.
7

====

System: EPHB4
Conditions: concentration: 1 μM, replicates: in singlicate; n = 1
QUANTITY: %Inh (%)
Express the result in % but write the number alone.

Identify %Inh associated with the compound Cc1ccc(NC(=O)c2cccc(N3CCCCC3)c2)cc1-c1ccc(C(=O)NCC2CC2)cc1
31

====

Tested on: FAK
Construct: gene PTK2
Details: concentration: 1 μM, replicates: in singlicate; n = 1
QUANTITY: %Inh (%)
Give the value in % but do not write % after it.

• COc1ccc(NC(=O)c2ccoc2)cc1-c1ccc(C(=O)NCC2CC2)cc1 [GW810437] = 0
• CN(c1ccc(F)c(NC(=O)c2cccc(OC(C)(C)C#N)c2Cl)c1)c1ccc2nc(NC(=O)C3CC3)sc2n1 = 1
• COc1cc(Nc2nccc(N3CCC(NC(=O)Nc4ccc5c(c4)OCO5)C3)n2)cc(OC)c1OC (centres unmarked) [GSK1379766] = 0
• N#Cc1cnc2cc(-c3cnc(CNCCN4CCOCC4)s3)ccc2c1Nc1ccc(Oc2ccccc2)cc1 [GW664114] = 0
• Cc1ccc(Nc2ccnc(Nc3ccc(C)c(F)c3)n2)cc1O.Cl [GW582868] = 0

Identify measured %Inh obtained with FAK for N#CC1(c2cccc(C(=O)Nc3cccc(Oc4ccc5nc(NC(=O)C6CC6)sc5n4)c3)c2)CC1 .
17

Please look at Cn1cc(-c2ccc3c(c2)CCN3C(=O)Cc2cc(F)cc(C(F)(F)F)c2)c2c(N)ncnc21 [GSK2635225] and tell me its recorded %Inh on FAK.
11

Write down measured %Inh (FAK) for this compound. COC(=O)Nc1nc2ccc(Oc3ccc(CC(=O)Nc4cc(C(F)(F)F)ccc4F)cc3)cc2[nH]1 [GW680903]
0
